# reported GI50; entries follow
System: K-562 leukemia
Protocol Description: NCI tumour cell line growth inhibition, 48 h
Test Readout: GI50

> print(dat)
                               smiles.input  test.readout  test.result
1  COC(=O)Nc1nc2ccc(Sc3ccc(NC(=O)Nc4cc(C(F)(F)F)ccc4F)cc3)cc2[nH]1          GI50       739 nM
2  C=C(C)[C@@H]1CCC[C@]2(C(=O)O)CC[C@]3(C)[C@@H](CC[C@@H]4[C@@]5(C)C/C(=C/c6ccncc6)C(=O)C(C)(C)[C@@H]5CC[C@]43C)[C@@H]12          GI50      3300 nM
3  O=[N+]([O-])c1cccc(-c2ncc(-c3ccc(Cl)cc3Cl)[nH]2)c1          GI50      2100 nM
4  C[C@]12CC[C@@H]3c4ccc(O)cc4CC[C@H]3[C@@H]1CC[C@@H]2NS(=O)(=O)c1ccc(-c2ccccc2)cc1          GI50      3480 nM

---

Test system: NCI-H23 lung
Protocol Description: NCI tumour cell line growth inhibition, 48 h
Test Readout: TGI

> print(dat)
                                   compound  test.result
1  CCCCCCCC(CC(=O)O)OC(=O)CC(CCCCCCC)OC1OC(C)C(O)C(O)C1OC1OC(C)C(O)C(O)C1O (configuration not stated)     > 100 µM
2  COC(=O)C(Cc1ccccc1)NC(=O)CCCNC(=O)OCc1ccccc1 (configuration not stated)     > 100 µM
3  COC(=O)c1ccc(OCc2ccc3nc(-c4ccccc4)c(Cl)nc3c2)cc1     > 100 µM
4  CN1C(=O)[C@@]2(C=CC3(CC2)OCCO3)c2ccccc21      > 50 µM
5  CN(C)CCNC(=O)c1cccc2c(NC(CS)C(=O)O)c3ccccc3nc12 (configuration not stated)      30.4 µM
6  COC(=O)CCc1ccc2c(c1)CC1(C2)Cc2ccc(CCC(=O)OC)cc2C1     > 100 µM
7  O=C(OCc1nc2ccc(Br)cc2c(=O)n1-c1ccccc1)c1ccccc1O     > 100 µM

---

# reported TGI; entries follow
Tested on: BT-549 breast
Protocol Description: NCI tumour cell line growth inhibition, 48 h
Peptide text beside a SMILES is read from it. * marks the point of attachment. Boc = CC(C)(C)OC(=O)*

Compound	TGI
CC(C)C[C@H](NC(=O)[C@@H](O)[C@H](N)Cc1ccccc1)C(=O)O	> 100 µM
O=C(O)c1ccccc1-c1ccccc1C(=O)c1ccccc1	> 100 µM
CC(=O)Nc1ncc2c(n1)-c1ccccc1OC2	> 100 µM
CC(=O)C1=C(O)/C(=C\c2ccco2)OC1=O	> 10 µM
CN1CCN(C(=S)SCN2C(=O)c3ccccc3S2(=O)=O)CC1	> 100 µM
Cn1c(=O)c2[nH]c(N/N=C3/SCC(=O)N3Cc3ccccc3)nc2n(C)c1=O	> 100 µM
CSCCC(NC(=O)C(CC(C)C)NC(=O)CNC(=O)OC(C)(C)C)C(=O)N(C)C (stereo not drawn) (Boc-Gly-Leu-Met-NMe2; configuration not given here)	> 100 µM
CN(Cc1nc2c(N)nc(N)nc2nc1N)c1ccc(C(=O)NC(CCC(=O)O)C(=O)O)cc1 (configuration not stated)	> 100 µM
C=CC1(CCC(Br)C(C)(C)Cl)CO1 (configuration not stated)	> 10 µM
CC(=O)c1nccc2c1c(C)nc1ccccc12	> 100 µM
c1csc(-c2ccc(-c3ccc(-c4cccs4)s3)s2)c1	> 100 µM
COC(=O)C(Cc1ccccc1)NC(=O)CCCNC(=O)OCc1ccccc1 (configuration not stated)	> 100 µM
